- System: Plasmodium berghei
- experiment-summary: Screen against P. berghei liver stage (PbLuc), transformed with Luciferase, at 10uM
- Type: functional, HepG2
- measurement-setup: tested at 10 uM
The campaign covered roughly 69,000 compounds. About 8,600 (12%) showed an effect of 50% or more. The sample as a whole holds a higher share of strong results than the screen did.
INHIBITION strictly under 10% means t; at 10% or over means f.

{"columns": ["compound", "class-name"],
 "data": [
  ["Cn1cccc1C(=O)NCc1cn2c(n1)CN(c1ncccn1)CC2", "t"],
  ["Cc1[nH]nc(CCC(=O)NCC2COc3ccccc3C2)c1C (stereo unspecified)", "f"],
  ["COc1ccc2c(c1)OCC(CNC(=O)c1ccc3[nH]nnc3c1)C2 (stereo unspecified)", "t"]
]}

Please let me know if c1ccc(NCc2cn3c(n2)CN(Cc2ccoc2)CC3)nc1 shows INHIBITION below 10%.
t

====

- Test system: Plasmodium berghei
- experiment-summary: Screen against P. berghei liver stage (PbLuc), transformed with Luciferase, at 10uM
- Type: functional, HepG2
- measurement-setup: tested at 10 uM
Screen size: about 69,000 compounds; about 8,600 (12%) showed an effect of 50% or more. The full list was thinned out, with strong results kept by preference.
INHIBITION strictly under 60% means 1 (yes); at 60% or over means 0 (no).

Example entries and their recorded answers appear below.
{"columns": ["compound", "class-name"],
 "data": [
  ["COc1ccc(N(c2ccccc2)c2ccc(C(=O)O)s2)cc1", "0 (no)"],
  ["CN1C(=O)C2(CCN(CC3CC3)CC2)c2ccccc21", "1 (yes)"],
  ["COc1ccc(N(c2ccc(C)cc2)c2ccc(C(=O)O)s2)cc1", "1 (yes)"],
  ["Cc1ccc(OCc2ccc(C(=O)O)s2)cc1C", "1 (yes)"],
  ["O=C(NC1CCCc2c1[nH]c1ccc(F)cc21)c1n[nH]c2c1CCCC2 (stereo unspecified)", "1 (yes)"],
  ["Cc1ccc(CN2CCC3(C2)C(=O)N(CC(C)C)c2ccccc23)s1 (stereo unspecified)", "0 (no)"],
  ["Cc1c(C(=O)N[C@@H]2CC[C@@H](N3CCCC3)[C@@H]2O)[nH]c2ccc(F)cc12", "1 (yes)"],
  ["Cc1ccc(CN2CCC3(C2)C(=O)N(CC(N)=O)c2ccccc23)s1 (stereo unspecified)", "1 (yes)"]
]}

Please let me know if COc1ccc(N(c2ccc(OC)cc2)c2ccc(C(=O)O)s2)cc1 shows INHIBITION below 60%.
0 (no)

Param item: CN1C(=O)C2(CCN(CCO)C2)c2ccccc21 (stereo unspecified)
1 (yes)

====

- Test system: Plasmodium berghei
- experiment-summary: Screen against P. berghei liver stage (PbLuc), transformed with Luciferase, at 10uM
- Type: functional, HepG2
- measurement-setup: tested at 10 uM
Out of some 69,000 compounds screened, about 8,600 (12%) showed an effect of 50% or more. What follows is part of a selection rich in strong results, with near analogues and random picks from the rest.
quantity-measured: INHIBITION (%)
Give the value in % but do not write % after it.

Check out these entries, answers already filled in.
{"columns": ["compound", "system-tested", "INHIBITION, %"],
 "data": [
  ["CNC(=O)[C@@H]1C[C@@H](N)CN1c1nnc(-c2ccccc2)s1", "Plasmodium berghei", 74.9],
  ["COCCC(=O)N1C[C@@H](c2ccccc2F)[C@@]2(CCCC(=O)N2)C1", "Plasmodium berghei", 29.5],
  ["Cc1ccc(CN2CCC(c3cnccn3)CC2)s1", "Plasmodium berghei", 18.9535],
  ["O=C(NCCNc1ccc(C(F)(F)F)cn1)c1ccc(Br)cc1", "Plasmodium berghei", -18]
]}

Recorded INHIBITION of O=C(NCCNc1ccc(C(F)(F)F)cn1)c1ccc(Cl)cc1F , please.
29.4

Param item: O=C(NCCc1csc(-c2ccncc2)n1)C1CC(=O)N(C2CC2)C1 (stereo not given)
2.66

Param item: CCOC(=O)CCNC(=O)c1cc(Cl)cc2cccnc12
30.5

Param item: CS(=O)(=O)N1C[C@H]2CNC[C@@]2(C(=O)NCCOc2ccccc2)C1
18.6

Param item: CCOC(=O)c1sc2ccsc2c1CN
0.938
